- procedure summary: absorption spectrum (maximum absorption wavelength, molar extinction coefficient)
- Type: physicochemical
property measured: molar extinction coefficient

Example results:
COc1c(NCc2cccc[n+]2CCCC(=O)O)c2c(=O)cc(OC)c3c4c(OC)cc(=O)c5c(O)c(NCc6cccc[n+]6CCCC(=O)O)c6c(c(c1C(C(C)=O)C(C)=C6)c23)c54 (centres unmarked) [HB-38b-N—COOH] :: 21,500 M^−1cm^−1
COc1c2c3c4c(c(NCCSCCOCCO)c(=O)c5c(O)cc(OC)c(c6c(OC)cc(NCCSCCOCCO)c(c1=O)c63)c54)C=C(C)C2C(C)=O (centres unmarked) :: 30,500 M^−1cm^−1
COc1c2c3c4c(c(NC5(CO)CC5)c(=O)c5c(O)cc(OC)c(c6c(OC)cc(NC7(CO)CC7)c(c1=O)c63)c54)C=C(C)C2C(C)=O (centres unmarked) [HB-35d] :: 31,500 M^−1cm^−1

Item COCCOCCOCCOCCOCCOCCOC(=O)CCCCCNc1c2c3c4c(c(OC)c(=O)c5c(O)cc(OC)c(c6c(OC)cc(NCCCCCC(=O)OCCOCCOCCOCCOCCOCCOC)c(c1=O)c63)c54)CC(C)=C2 : provide molar extinction coefficient
33,000 M^−1cm^−1

Item COc1c(O)c2c(=O)cc(OC)c3c4c(OC)cc(=O)c5c(NCC(=O)O)c(NCC(=O)O)c6c(c(c1CC(C)=C6)c23)c54 : provide molar extinction coefficient
27,500 M^−1cm^−1

###

- procedure summary: absorption spectrum (maximum absorption wavelength, molar extinction coefficient)
- Format: physicochemical
molecules and their reported maximum absorption wavelength
Form entry: value (nm) — number only.

Example results:
CCNc1c(O)c2c(=O)c(SCCO)c(OC)c3c4c(OC)cc(=O)c5c(NC6CCCC6)c(OC)c6c(c(c1C=C(C)C6C(C)=O)c23)c54 (centres unmarked) [HB-S-44b] :: 622
COc1c2c3c4c(c(NCCCS(=O)(=O)O)c(=O)c5c(NCS(=O)(=O)O)cc(OC)c(c6c(OC)cc(O)c(c1=O)c63)c54)C=C(C)C2 [HC-45c] :: 627
COc1c(NCC2CCC(C(=O)OCCCC[N+](C)(C)C)CC2)c2c(=O)cc(OC)c3c4c(OC)cc(=O)c5c(O)c(NCC6CCC(C(=O)OCCCC[N+](C)(C)C)CC6)c6c(c(c1CC(C)=C6)c23)c54 (centres unmarked) [HC-13b-C4-N^+] :: 624

Item COc1c2c3c4c(c(NCC[N+]56CC[N+](C)(CC5)CC6)c(=O)c5c(O)cc(OC)c(c6c(OC)cc(NCC[N+]78CC[N+](C)(CC7)CC8)c(c1=O)c63)c54)C=C(C)C2C(C)=O (centres unmarked) [HB-41d] : provide maximum absorption wavelength
625

Item COc1c(NCCC2CCC(O)CC2)c2c(=O)cc(OC)c3c4c(OC)cc(=O)c5c(O)c(NCCC6CCC(O)CC6)c6c(c(c1C(C(C)=O)C(C)=C6)c23)c54 (centres unmarked) [HB-18b] : provide maximum absorption wavelength
621

Item COCCOCCOCCOCCOCCOCCOCCOCCOCCOCCOCCOCCOC(=O)CCCCCNc1c2c3c4c(c(OC)c(=O)c5c(NCCCCCC(=O)OCCOCCOCCOCCOCCOCCOCCOCCOCCOCCOCCOCCOC)cc(OC)c(c6c(OC)cc(O)c(c1=O)c63)c54)CC(C)=C2 : provide maximum absorption wavelength
625

Item COCCOCCOCCOCCOCCOCCOC(=O)CCCNc1c2c3c4c(c(OC)c(=O)c5c(O)cc(OC)c(c6c(OC)cc(NCCCC(=O)OCCOCCOCCOCCOCCOCCOC)c(c1=O)c63)c54)CC(C)=C2 : provide maximum absorption wavelength
632

Item COc1c(NCCO)c2c(=O)cc(OC)c3c4c(OC)cc(=O)c5c(O)c(NCCO)c6c(c(c1C(C(C)=O)C(C)=C6)c23)c54 (centres unmarked) : provide maximum absorption wavelength
627

Item CCCCCCNc1c(NCCCCCC)c2c(=O)cc(OC)c3c4c(OC)cc(=O)c5c(O)c(OC)c6c(c(c1C=C(C)C6)c23)c54 [HC-34a] : provide maximum absorption wavelength
625

Item COc1c(NCCCC(=O)NCCCC[N+](C)(C)C)c2c(=O)cc(OC)c3c4c(OC)cc(=O)c5c(O)c(NCCCC(=O)NCCCC[N+](C)(C)C)c6c(c(c1CC(C)=C6)c23)c54 : provide maximum absorption wavelength
626

Item COc1c2c3c4c(c(NCCC(=O)O)c(=O)c5c(O)cc(OC)c(c6c(OC)cc(NCCC(=O)O)c(c1=O)c63)c54)C=C(C)C2C(C)=O (centres unmarked) [HB-10d] : provide maximum absorption wavelength
621

These measurements were taken from patent US11439707B2.
